- Tested on: NCI-H3122
- Assay info: relative viability (nuclei count vs DMSO), 5 days (fraction); higher = more cells survive
- Setup conditions: first compound 0.01 µM
relative viability strictly under 0.9 means label 1; at 0.9 or over means label 0.

Compound | Class name
NC(=O)Nc1cc(-c2cccc(F)c2)sc1C(=O)N[C@H]1CCCNC1 [AZD7762] + Cc1cc(Nc2cc(N3CCN(C)CC3)nc(Sc3ccc(NC(=O)C4CC4)cc3)n2)n[nH]1 [Tozasertib] (partner 0.1 µM) | label 1
NC(=O)Nc1cc(-c2cccc(F)c2)sc1C(=O)N[C@H]1CCCNC1 [AZD7762] + C[C@]1(O)C[C@@H](c2nc(-c3ccc4ccc(-c5ccccc5)nc4c3)c3c(N)nccn32)C1 [Linsitinib] (partner 1 µM) | label 0
NC(=O)Nc1cc(-c2cccc(F)c2)sc1C(=O)N[C@H]1CCCNC1 [AZD7762] + CS(=O)(=O)N1CCN(Cc2cc3nc(-c4cccc5[nH]ncc45)nc(N4CCOCC4)c3s2)CC1 [Pictilisib] (partner 1 µM) | label 1
NC(=O)Nc1cc(-c2cccc(F)c2)sc1C(=O)N[C@H]1CCCNC1 [AZD7762] + Nc1nc2[nH]cc(CCc3ccc(C(=O)N[C@@H](CCC(=O)O)C(=O)O)cc3)c2c(=O)[nH]1 [Pemetrexed] (partner 0.2 µM) | label 1
NC(=O)Nc1cc(-c2cccc(F)c2)sc1C(=O)N[C@H]1CCCNC1 [AZD7762] + Nc1ncn([C@H]2C[C@H](O)[C@@H](CO)O2)c(=O)n1 [Decitabine] (partner 2 µM) | label 1

Okay, now this compound:
Qu. Input NC(=O)Nc1cc(-c2cccc(F)c2)sc1C(=O)N[C@H]1CCCNC1 [AZD7762] + O=C(CCCCCCC(=O)Nc1ccccc1)NO [Vorinostat] (partner 1 µM) ; condition: relative viability strictly below 0.9. Does it hold?
Ans. label 0

----------
Here, each record is paired with measured relative viability data.
- System: EMC-BAC-2
- Assay info: relative viability (nuclei count vs DMSO), 5 days (fraction); higher = more cells survive
- Setup conditions: first compound 0.3162 µM
Number, no unit, nothing else.

Compound | relative viability
NC(=O)Nc1cc(-c2cccc(F)c2)sc1C(=O)N[C@H]1CCCNC1 [AZD7762] + Nc1nc2[nH]cc(CCc3ccc(C(=O)N[C@@H](CCC(=O)O)C(=O)O)cc3)c2c(=O)[nH]1 [Pemetrexed] (partner 0.2 µM) | 0.35
NC(=O)Nc1cc(-c2cccc(F)c2)sc1C(=O)N[C@H]1CCCNC1 [AZD7762] + Cc1cc(Nc2cc(N3CCN(C)CC3)nc(Sc3ccc(NC(=O)C4CC4)cc3)n2)n[nH]1 [Tozasertib] (partner 0.1 µM) | 0.321
NC(=O)Nc1cc(-c2cccc(F)c2)sc1C(=O)N[C@H]1CCCNC1 [AZD7762] + O=C(c1cc(Cc2n[nH]c(=O)c3ccccc23)ccc1F)N1CCN(C(=O)C2CC2)CC1 [Olaparib] (partner 8 µM) | 0.64
NC(=O)Nc1cc(-c2cccc(F)c2)sc1C(=O)N[C@H]1CCCNC1 [AZD7762] + Cc1nc(Nc2ncc(C(=O)Nc3c(C)cccc3Cl)s2)cc(N2CCN(CCO)CC2)n1 [Dasatinib] (partner 0.075 µM) | 0.346
NC(=O)Nc1cc(-c2cccc(F)c2)sc1C(=O)N[C@H]1CCCNC1 [AZD7762] + Nc1ncn([C@H]2C[C@H](O)[C@@H](CO)O2)c(=O)n1 [Decitabine] (partner 2 µM) | 1.13

# ---- query compound ----
Qu. Quick one: relative viability for NC(=O)Nc1cc(-c2cccc(F)c2)sc1C(=O)N[C@H]1CCCNC1 [AZD7762] + CC(C)C[C@H](NC(=O)[C@H](Cc1ccccc1)NC(=O)c1cnccn1)B(O)O [Bortezomib] (partner 0.002 µM) ?
Ans. 1.15
